// data source = patent US11542264B2

test: Rat IV pharmacokinetic study, in vivo clearance
measure name: clearance (mL/min/kg)
Number only, in mL/min/kg; omit the unit.

compound=CC1(F)CN(C(=O)Cn2ccc3scc(-c4ccc(F)c(C(F)(F)F)c4)c3c2=O)C1 reported=29.4

Which value of clearance has been reported for O=C(Cn1ccc2scc(-c3ccc(F)c(Cl)c3)c2c1=O)N1CCCC1 in the records?
43.6

Which value of clearance has been reported for O=C(Cn1ccc2scc(-c3cnc(Cl)c(Cl)c3)c2c1=O)N1CCC(F)C1 (stereo not shown) in the records?
19.4

Which value of clearance has been reported for CC1(F)CN(C(=O)Cn2ccn3ccc(-c4ccc(F)c(Cl)c4)c3c2=O)C1 in the records?
46.2

Which value of clearance has been reported for CC1(F)CN(C(=O)Cn2ccn3ccc(-c4ccc(Cl)c(Cl)c4)c3c2=O)C1 in the records?
23.4

====

Molecular target: hNR2B (Homo sapiens, UniProt Q05586+Q13224)
Construct: expressed in transfected cells
Sequence (Q13224 27-1484, other chains not shown): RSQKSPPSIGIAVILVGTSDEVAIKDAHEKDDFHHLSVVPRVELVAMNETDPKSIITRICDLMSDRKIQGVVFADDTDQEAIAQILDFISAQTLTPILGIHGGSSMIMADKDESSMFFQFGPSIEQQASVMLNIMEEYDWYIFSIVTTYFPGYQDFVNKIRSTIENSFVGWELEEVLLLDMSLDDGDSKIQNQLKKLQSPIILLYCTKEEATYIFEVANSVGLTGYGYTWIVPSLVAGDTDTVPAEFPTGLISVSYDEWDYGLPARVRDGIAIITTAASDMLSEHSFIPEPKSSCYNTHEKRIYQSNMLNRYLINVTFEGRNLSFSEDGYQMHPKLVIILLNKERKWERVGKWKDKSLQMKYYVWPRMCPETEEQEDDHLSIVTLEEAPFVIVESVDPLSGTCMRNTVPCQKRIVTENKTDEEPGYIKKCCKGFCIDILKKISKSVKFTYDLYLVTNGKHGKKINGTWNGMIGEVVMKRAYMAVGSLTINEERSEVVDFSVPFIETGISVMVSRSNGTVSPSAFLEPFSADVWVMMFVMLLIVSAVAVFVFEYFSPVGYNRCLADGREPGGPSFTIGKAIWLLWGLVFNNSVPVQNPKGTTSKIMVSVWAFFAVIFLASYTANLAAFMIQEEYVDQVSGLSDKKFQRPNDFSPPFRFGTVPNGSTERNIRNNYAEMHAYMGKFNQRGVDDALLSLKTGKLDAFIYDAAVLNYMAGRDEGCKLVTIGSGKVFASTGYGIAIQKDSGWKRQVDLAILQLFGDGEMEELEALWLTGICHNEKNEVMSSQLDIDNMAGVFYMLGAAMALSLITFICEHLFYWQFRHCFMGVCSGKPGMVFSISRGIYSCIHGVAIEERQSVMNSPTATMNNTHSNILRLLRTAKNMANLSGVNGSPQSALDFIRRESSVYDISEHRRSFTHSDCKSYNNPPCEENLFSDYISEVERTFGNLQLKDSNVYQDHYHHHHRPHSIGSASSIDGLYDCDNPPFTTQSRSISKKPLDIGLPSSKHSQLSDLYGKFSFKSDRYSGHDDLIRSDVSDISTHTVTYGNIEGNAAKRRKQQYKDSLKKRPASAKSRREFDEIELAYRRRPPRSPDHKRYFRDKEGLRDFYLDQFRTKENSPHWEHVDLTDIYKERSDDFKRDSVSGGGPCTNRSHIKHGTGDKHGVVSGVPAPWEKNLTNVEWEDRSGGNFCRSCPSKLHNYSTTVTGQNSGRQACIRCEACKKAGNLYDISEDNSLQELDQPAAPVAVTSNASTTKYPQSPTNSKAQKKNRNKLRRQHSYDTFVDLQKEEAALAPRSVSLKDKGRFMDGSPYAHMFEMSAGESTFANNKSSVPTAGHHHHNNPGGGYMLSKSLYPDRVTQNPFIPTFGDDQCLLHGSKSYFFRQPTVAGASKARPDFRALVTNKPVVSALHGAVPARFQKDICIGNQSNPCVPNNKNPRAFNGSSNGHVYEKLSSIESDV
Assay: Oocyte 2EVC NR2B PAM activity
Format: cell-based
Conditions: Table 4; read-out: Oocyte 2EVC NR2B PAM: EC50
Excerpt: EC50 refers to the concentration of a compound that gives half-maximal response.
Just a reminder that ties go to Not satisfied: only EC50 strictly below 0.5 µM counts as Satisfied.

compound=CC1(F)CN(C(=O)Cn2ccn3ccc(-c4ccc(Cl)c(Cl)c4)c3c2=O)C1 discrete_label="Not satisfied"
compound="O=C(Cn1ccc2scc(-c3ccc(F)c(Cl)c3)c2c1=O)N1CCC(F)C1 (stereo not drawn)" discrete_label="Not satisfied"

Could you please tell me whether EC50 recorded for CC1(F)CN(C(=O)Cn2ccc3scc(-c4ccc(Cl)c(Cl)c4)c3c2=O)C1 is less than 0.5 µM?
Satisfied

Could you please tell me whether EC50 recorded for O=C(Cn1ccc2scc(-c3ccc(F)c(Cl)c3)c2c1=O)N1CCCC1 is less than 0.5 µM?
Not satisfied

Could you please tell me whether EC50 recorded for CC1(F)CN(C(=O)Cn2ccn3ccc(-c4ccc(F)c(Cl)c4)c3c2=O)C1 is less than 0.5 µM?
Not satisfied

Could you please tell me whether EC50 recorded for CC1(F)CN(C(=O)Cn2ccc3scc(-c4ccc(F)c(C(F)(F)F)c4)c3c2=O)C1 is less than 0.5 µM?
Satisfied

Could you please tell me whether EC50 recorded for CC1(F)CN(C(=O)Cn2ccc3c(c(-c4ccc(F)c(Cl)c4)cn3C3CC3)c2=O)C1 is less than 0.5 µM?
Satisfied

Could you please tell me whether EC50 recorded for O=C(Cn1ccc2scc(-c3cnc(Cl)c(Cl)c3)c2c1=O)N1CCC(F)C1 (stereo not drawn) is less than 0.5 µM?
Not satisfied

Could you please tell me whether EC50 recorded for CC1(F)CN(C(=O)Cn2ccc3scc(-c4ccc(F)c(Cl)c4)c3c2=O)C1 is less than 0.5 µM?
Not satisfied

====

molecular target: hNR2B (Homo sapiens, UniProt Q05586+Q13224); construct: expressed in transfected cells; test: Oocyte 2EVC NR2B PAM activity; format: cell-based; details: oocytes expressing hNR2B, 5 μM glutamate and 3 μM glycine; read-out: Oocyte 2EVC NR2B PAM: Avg EC50
measure name: EC50 (nM)
Number only, in nM; omit the unit.

Which value of EC50 has been reported for CC1(F)CN(C(=O)Cn2cnc3c(c(-c4ccc(F)c(Cl)c4)cn3C3CC3)c2=O)C1 in the records?
446
